System: HRV-10
assay: Antirhinoviral H1-HeLa cell culture assay (cell protection, XTT), HRV-10
Assay type: cell-based
runParameters: Human rhinovirus sp., HRV10, 48 h, HRV-10, H1-HeLa cells, two days
What log10 of EC50 was measured for each of the following?
Form field - Quantity: EC50; Unit: µM; Scale: log10

Q) GET /values?readout=log10 of EC50&system=HRV-10&item= CCOC(=O)/C=C/[C@H](C[C@@H]1CCNC1=O)NC(=O)/C=C/c1cc2c(cc1Br)OCO2 [Compound 49]
A) -0.50

Q) Next compound: CCOC(=O)/C=C/[C@H](CCC(N)=O)NC(=O)c1cc2ccccc2s1 [Compound 26]
A) 1.09

Q) // next record CCOC(=O)/C=C/[C@H](C[C@@H]1CCNC1=O)NC(=O)C1=Cc2cc(Br)ccc2OC1 [Compound 52]
A) -0.26

Q) Next up: CCOC(=O)/C=C/[C@H](C[C@@H]1CCNC1=O)NC(=O)C1=Cc2cc(Cl)ccc2OC1 [Compound 44]
A) -0.34

Q) Now give it for CCOC(=O)/C=C/[C@H](CCC(N)=O)NC(=O)c1ccc2ccccc2c1 [Compound 25] too.
A) 1.54

Q) // next record CCOC(=O)/C=C/[C@H](C[C@@H]1CCNC1=O)NC(=O)c1ccc2ccc(Br)cc2c1 [Compound 53]
A) -0.26
